Test system: Sam68 (KHDRBS1)
Test: Sam68 small-molecule binders, primary screen, biochemical, small-molecule microarray, 635 nm fluorescence (AID 1125);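 also: score merges 667 nm channel intensity with signal to noise over triplicate slides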
Conditions: small-molecule microarray binding, higher = more signal
Entries annotated with measured composite z-score
Please reply with the number alone, leaving off any unit.

The molecule listed as O=C1[C@H]2[C@H]3[C@H](O)[C@H](O)CC(=NO[C@@H]4O[C@H](CO)[C@@H](O)[C@H](O)[C@H]4O)[C@@H]3CC[C@H]2C(=O)N1Cc1ccc2c(c1)OCO2 shows composite z-score equal to 0.907

The molecule listed as CC(=O)C[C@H](O)[C@@H](NC(=O)OC(C)(C)C)C(C)C shows composite z-score equal to -1.8

The molecule listed as CC(C)NC(=O)[C@@H]1c2ccccc2C(=O)N(CC23CC4CC(CC(C4)C2)C3)[C@H]1c1ccc(CO)cc1 shows composite z-score equal to 1.3

We now examine a further molecule.
The molecule listed as O=C1[C@H]2[C@H]3[C@H](O)[C@H](O)CC(=NOC[C@@H](O)COCc4ccco4)[C@H]3CC[C@H]2C(=O)N1Cc1ccc2c(c1)OCO2 shows composite z-score equal to 0.0595

* * *

Experiment: RPMI8226 myeloma cell viability, profiling panel, resazurin fluorescence, basal, 24 h, PK04 Diversity Set (AID 1180);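 also: RPMI8826 multiple myeloma cell line at 5000 cells per well; test concentration not given here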
Conditions: higher = more signal
Decision: z-score >= 0.2 yields Y, all other cases yield N.

Prompt line: Can Cn1c(=O)n2n(c1=O)[C@H]1[C@H](O)[C@@H]3O[C@@H]3C(=NOC[C@@H](O)COCc3ccco3)[C@H]1CC2 be said to have z-score at or above 0.2?
Response line: N

Prompt line: Can C[N+](C)(C)CCCCCCNC(=O)[C@@H]1C[C@@H]2C(=O)N3CCC[C@H]3C(=O)N2[C@@H]1c1cccc(OCCO)c1 be said to have z-score at or above 0.2?
Response line: N

Prompt line: Can CC(C)=CCCC(C)=CCON=C1C[C@@H](O)[C@@H](O)[C@@H]2[C@@H]3C(=O)N(C[C@@H]4CCCO4)C(=O)[C@@H]3CC[C@@H]12 be said to have z-score at or above 0.2?
Response line: Y

Prompt line: Can CC(C)[Si]1(C(C)C)O[C@@H](c2ccccc2)c2cc(C3CC3)nc(-c3ccccc3)c21 be said to have z-score at or above 0.2?
Response line: Y

Prompt line: Can COc1ccc([Si](C)(C)[C@@H]2[C@@H](CC(=O)N3CCC[C@H]3CO)O[C@]3(C(=O)N(Cc4cccc(N5CCC5=O)c4)c4ccccc43)[C@H]2C)cc1 be said to have z-score at or above 0.2?
Response line: N

Prompt line: Can NCCCCCNC(=O)[C@@H]1C[C@@H]2C(=O)N3CCC[C@H]3C(=O)N2[C@@H]1c1cccc(OCCO)c1 be said to have z-score at or above 0.2?
Response line: N

Prompt line: Can COC(=O)C1=CCC(c2cccc(Cl)c2)O1 (stereo unspecified) be said to have z-score at or above 0.2?
Response line: N

Prompt line: Can CO[C@@H]1COC(=O)CC=C[C@@H](C)COC(=O)[C@H](COCc2ccccc2)NC(=O)CC=C[C@H]1C be said to have z-score at or above 0.2?
Response line: Y

Others:
Prompt line: Can CN1C(=O)[C@@]2(CCC(=O)OC(C)(C)C)N=C(c3ccc(OCCCO)cc3)O[C@H]2c2ccccc21 be said to have z-score at or above 0.2?
Response line: N

Prompt line: Can CCOC(=O)C1=CCC(c2cc3ccccc3[nH]2)NC1 (stereo unspecified) be said to have z-score at or above 0.2?
Response line: N

Prompt line: Can CCCNC(=O)[C@@H]1c2ccccc2C(=O)N(Cc2ccccc2Cl)[C@H]1c1ccc(CO)cc1 be said to have z-score at or above 0.2?
Response line: Y

Prompt line: Can COC(=O)[C@H](C)NC(=O)CCC1CC(OC(=O)NCc2ccc3c(c2)OCO3)CC2(CCCC(COC(=O)NCCOc3ccccc3)O2)O1 (stereo partly specified) be said to have z-score at or above 0.2?
Response line: Y

* * *

Entries annotated with measured composite z-score
Molecular target: E3 ubiquitin-protein ligase XIAP (Homo sapiens)
Assay: XIAP binders, primary screen, biophysical, small-molecule microarray, fluorescence 635 nm (AID 1181);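 also: score merges 667 nm emission and signal to noise over triplicate slides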
Conditions: small-molecule microarray binding, higher = more signal

Known results for compounds:
The compound listed as CCOC(=O)C[C@H]1[C@H](OC(=O)c2cc3ccccc3oc2=O)[C@@H](NC(=O)c2ccc3ccccc3n2)c2cc(OCCCO)ccc2N1C(=O)c1ccccc1 shows composite z-score equal to 0.217

The compound listed as O=C(CS)NCCCCCNC(=O)[C@@H]1C[C@@H]2C(=O)N[C@@H](Cc3ccccc3)C(=O)N2[C@@H]1c1ccc(O)cc1 shows composite z-score equal to -0.0282

The compound listed as CCCNC(=O)OC[C@H]1O[C@H](CCON=C[C@@H](OC)[C@H](C)C=CCC(=O)OC)C=C[C@@H]1Oc1ccc(OC)cc1 shows composite z-score equal to -0.0361

Others:
The compound listed as CC(C)[C@@H](OCc1ccccc1)[C@H](C)C=NOC[C@@H](C)[C@H](OCc1ccccc1)C(C)C shows composite z-score equal to -0.345

The compound listed as O=C1NC(=O)C2C1C=CC(C(O)Cc1ccccc1)N2Nc1ccccn1 (configuration not stated) shows composite z-score equal to -0.136

The compound listed as COc1ccc(O[C@H]2C=C[C@@H](c3ccccc3)O[C@@H]2COC(=O)CCC(C)=NO[C@@H](C)c2cc(-c3c(C)cc(C)cc3C)no2)cc1 shows composite z-score equal to -0.151

The compound listed as O=C1O[C@@H](c2ccccc2)[C@@H](c2ccccc2)N2[C@@H](c3ccccc3OCCO)[C@]3(C(=O)Nc4ccc(C#CCCO)cc43)[C@@H](C(=O)O)[C@H]12 shows composite z-score equal to 0.32

* * *

Test system: glycogen synthase kinase-3 (GSK3A per assay name; protocol says GSK3B)
Assay: GSK3 binders on small-molecule microarrays, primary screen, biochemical, small-molecule microarray, 635 nm fluorescence, GSK3A (AID 1103); also: the record names both GSK3A and GSK3B
Details: small-molecule microarray binding, fluorescence 635 nm; higher = more signal
Readout type: composite z-score
Please reply with the number alone, leaving off any unit.

The compound listed as Cn1cccc1C(O)C1C=CC2C(=O)NC(=O)C2N1Nc1ccccn1 (stereo unspecified) shows composite z-score equal to -0.0788

The compound listed as CC(=O)OC[C@H]1O[C@H](CCON=C(C)CCN2CCc3nc(-c4ccccc4)c(-c4ccccc4)cc3C2)C=C[C@@H]1OC(C)=O shows composite z-score equal to 0.102

Others:
The compound listed as CC(C)c1ccc(NN2C(C(O)c3ccc4c(c3)OCO4)C=CC3C(=O)N(c4ccccc4)C(=O)C32)cc1 (stereo unspecified) shows composite z-score equal to 1.18

The compound listed as Cc1cc2c(nc1C)CCCN2CC(O)CN1CCN(C)CC1 (stereo unspecified) shows composite z-score equal to 0.132

The compound listed as CN1C(=O)C2C=CC(C(O)C(c3ccccc3)c3ccccc3)N(NC(=O)OC(C)(C)C)C2C1=O (stereo unspecified) shows composite z-score equal to 1.12

The compound listed as O=C1C[C@@H](O)[C@@H](O)[C@@H]2[C@@H]3C(=O)N(c4cccc(Oc5ccccc5)c4)C(=O)[C@@H]3CC[C@@H]12 shows composite z-score equal to 0.655

* * *

Molecular target: Alpha-bungarotoxin (Bungarus multicinctus)
Assay: alpha-bungarotoxin binders on microarray, profiling panel, artefact control for SMM control protein annotation, biochemical, small-molecule microarray, Alexa647 label, 635/667 nm fluorescence (AID 1117)
Details: alpha-BTX-A647 binding fluorescence, higher = more signal
Entries annotated with measured composite z-score
Please reply with the number alone, leaving off any unit.

The molecule listed as CC(C)[C@@H](OCc1ccccc1)[C@H](C)C=NOC[C@@H](C)[C@H](OCc1ccccc1)C(C)C shows composite z-score equal to 0.312

The molecule listed as CCN1C(=O)[C@H]2[C@H]3[C@H](O)[C@H](O)CC(=NOC(C)CN4CCCCc5nc(C)c(C)cc54)[C@@H]3CC[C@H]2C1=O (stereo partly specified) shows composite z-score equal to -0.294

The molecule listed as CCOC(=O)[C@H](CC(C)C)NC(=O)CCC1CC(OC(=O)NCc2cccc3ccccc23)CC2(CCCC(COC(=O)NCCN3CCOCC3)O2)O1 (stereo partly specified) shows composite z-score equal to 0.548

The molecule listed as CO[C@@H]1COC(=O)CC=C[C@@H](C)COC(=O)[C@H](COCc2ccccc2)NC(=O)CC=C[C@H]1C shows composite z-score equal to -0.397

The molecule listed as COC(=O)[C@@H]1CC[C@H](C)[C@@H](c2ccc(C)cc2)N1C(=O)c1ccc(C=NOC(C)CN2CCCCc3nc(C)c(C)cc32)cc1 (stereo partly specified) shows composite z-score equal to 0.709

We now examine a further molecule.
The molecule listed as CCOC(=O)[C@H](Cc1ccccc1)NC(=O)CCC1CC(OC(=O)NCc2ccc3c(c2)OCO3)CC2(CCCC(COC(=O)NCc3ccccc3)O2)O1 (stereo partly specified) shows composite z-score equal to 0.463
